# Species: Homo sapiens
# Experiment: Inhibition of actin (unknown origin) polymerization at 1 uM incubated for 20 mins in presence of ATP by ELISA analysis relative to control
Measure: inhibition
Remember to put the unit after the number in your answer.

Compound String	Measure	Test Value
CCN1C(=O)SC[C@H]1[C@@]1(OC)C[C@H]2C[C@@H](CC[C@H](C)/C=C\C=C\CC/C(C)=C\C(=O)O2)O1	inhibition	18%

Lookup: Give me measured inhibition, please, for this molecule: CO[C@]1([C@@H]2CSC(=O)N2CCCO)C[C@H]2C[C@@H](CC[C@H](C)/C=C\C=C\CC/C(C)=C\C(=O)O2)O1
Found: 21%

Lookup: Give me measured inhibition, please, for this molecule: CO[C@]1([C@@H]2CSC(=O)N2C)C[C@H]2C[C@@H](CC[C@H](C)/C=C\C=C\CC/C(C)=C\C(=O)O2)O1
Found: 19%

* * *

# Test system: T47D
# Experiment: Anticancer activity against human T47D cells assessed as cell growth inhibition incubated for 48 hrs by MTT assay
# Assay type: functional, cell-based
Measure: IC50
Remember to put the unit after the number in your answer.

Lookup: Give me measured IC50, please, for this compound: O[C@]12CCCCCC[C@@H]3CCN4CCC[C@](O)(CCCCCC[C@@H]5CCN(CCC1)[C@H]2O5)[C@@H]4O3
Found: 46.1 µM

* * *

# System: HepG2
# Experiment: Anticancer activity against human HepG2 cells assessed as inhibition of cell growth incubated for 72 hrs by SRB assay
# Type: functional, cell-based
# Reported Conditions: HepG2, 72 h
pIC50 values, listed per item
Conceptually, pIC50 converts a concentration in mol/L into minus its log10.

Compound String	pIC50
CC(=O)O[C@@H]1C[C@@H]2[C@@]3(C)CCCC(C)(C)[C@@H]3CC[C@@]2(C)[C@@H]2CCC3=C(C(=O)OC3)[C@@]12C	4.76

Lookup: Recall the reported pIC50 of CC1(C)CCC[C@]2(C)[C@H]3C[C@@H](O)[C@]4(C)[C@H](C=O)C(C=O)=CC[C@H]4[C@]3(C)CC[C@@H]12 on HepG2 and write it down.
Found: 5.77

Lookup: Recall the reported pIC50 of CC1(C)CCC[C@]2(C)[C@H]3C[C@@H](O)[C@]4(C)[C@@H](C=O)C(C=O)=CC[C@H]4[C@]3(C)CC[C@@H]12 on HepG2 and write it down.
Found: 4.63

* * *

IC50 values, listed per item
# Tested on: HepG2
# Experiment: Anticancer activity against human HepG2 cells assessed as inhibition of cell growth
# Format: functional, cell-based
Remember to put the unit after the number in your answer.

Examples from the recorded data:
Compound String	Test Value
CCCCCCCCCCCCCCCCCCCCC[C@@H](O)[C@@H](O)[C@H](CO)NC(=O)[C@H](O)CCCCCCCCCCCCCCCC	24.7 µM
C/C1=C/C(=O)O[C@@H]2C[C@@H](CC[C@H](C)/C=C\CC1)O[C@@](O)([C@@H]1CSC(=O)N1)C2	19.3 µM
C/C1=C/C(=O)O[C@@H]2C[C@@H](CC[C@H](C)/C=C\CC1)O[C@@](O)([C@@H]1CS(=O)(=O)C(=O)N1O)C2	16.3 µM
O=C(O)CCCC#CC#C/C=C/CCCCCCC=C(Br)Br	0.0412 µM

Lookup: Give me measured IC50, please, for this molecule: CC1=CC[C@H]2[C@@H]([C@@H]1CC[C@H]1[C@]3(C)CC[C@H](O)C(C)(C)O[C@H]3CC[C@]1(C)O)C(C)(C)CC[C@]2(C)O
Found: 24 µM

Lookup: Give me measured IC50, please, for this molecule: CCCCCCCC/C=C\CCCCCCC[C@@H](O)C(=O)N[C@@H](CO)[C@H](O)[C@H](O)CCCCCCCCCCCCCCCCCCC
Found: 21.3 µM

Lookup: Give me measured IC50, please, for this molecule: CCCCCCCCCCCCC(=O)N[C@@H](CO)[C@H](O)[C@H](O)CCCCCCCCCC
Found: 107 µM
